- protocol: log P determination by HPLC on reversed-phase columns (EEC Directive 79/831 Annex V.A8)
- Format: physicochemical
- condition.label: pH 2.7
A collection of compounds and their measured chromatographic logP
reported.metric: chromatographic logP

[[record]]
compound = "CNC(=O)c1cc(Cl)cc(C)c1NC(=O)c1cc(Cn2nnc3cc(C(F)(F)F)ccc32)nn1-c1ncccc1Cl"
reported_metric = "chromatographic logP"
numeric_result = 3.13

[[record]]
compound = "Cc1cc(Cl)cc(C(N)=O)c1NC(=O)c1cc(Cn2nc(C(F)(F)F)c(C(F)(F)F)n2)nn1-c1ncccc1Cl"
reported_metric = "chromatographic logP"
numeric_result = 3.49

[[record]]
compound = "Cc1cc(Cl)cc(C(=O)NCC2CC2)c1NC(=O)c1cc(Cn2cc(C(F)(F)F)nn2)nn1-c1ncccc1Cl"
reported_metric = "chromatographic logP"
numeric_result = 3.22

[[record]]
compound = "CNC(=O)c1cc(C#N)cc(C)c1NC(=O)c1cc(Cn2ncc(C3CC3)n2)nn1-c1ncccc1Cl"
reported_metric = "chromatographic logP"
numeric_result = 2.28

[[record]]
compound = "Cc1cc(I)cc(C(=O)NC(C)C2CC2)c1NC(=O)c1cc(Cn2cc(C(F)(F)F)nn2)nn1-c1ncccc1Cl (stereo not shown)"
reported_metric = "chromatographic logP"
numeric_result = 3.69

[[record]]
compound = "CNC(=O)c1cc(C#N)cc(C)c1NC(=O)c1cc(Cn2nnc3c(Br)cc(OC(F)(F)F)cc32)nn1-c1ncccc1Cl"
reported_metric = "chromatographic logP"
numeric_result = 3.37

[[record]]
compound = "Cc1cc(C#N)cc(C(=O)NC(C)(C)C)c1NC(=O)c1cc(Cn2cc(-c3cccc(Cl)c3)nn2)nn1-c1ncccc1Cl"
reported_metric = "chromatographic logP"
numeric_result = 3.55

